# Method Notes: in vitro
# Applied Conditions: human, hela cells, % viability
Measurement Name: viability at 28.5 h, 10 µM (%)
Give a bare numeral; the unit % is implied.

The examples below pair each entry with its known result.
O=C(c1csc(-c2ccncc2)n1)N1CCN(c2ccccc2)CC1: 110
Cc1ccccc1S(=O)(=O)Nc1nccnc1-c1ccc2c(c1)OCO2: 122

Write down viability at 28.5 h, 10 µM measured for item O=c1cc(N2CCCCC2)cnn1Cc1nccs1 87.4

Give a short answer stating reported viability at 28.5 h, 10 µM for O=C(Nc1ccc2nonc2c1)N1CCOCC1 . 90.8

Complete the entry with viability at 28.5 h, 10 µM for COc1ccc(OC)c(NC(=O)CN2CCC(C(N)=O)(N3CCCCC3)CC2)c1 98.2

Check the records and state viability at 28.5 h, 10 µM for N#Cc1ccccc1CSc1ncn[nH]1 95.1

----------
# Method Notes: in vitro
# Applied Conditions: human, hela cells, % viability
Measurement Name: viability at 28.5 h, 10 µM (%)
# unit: % | format: bare number

CN1C[C@@H](NC(=O)NCc2ccccc2)C[C@H]1c1nc(-c2cncnc2)no1 [CBK288878]: 108
CN(CC(=O)Nn1cnnc1)S(=O)(=O)c1ccc(Br)cc1 [CBK268597]: 85.9
CC(C)(C(=O)N1CCC(CC(=O)NCCc2ccccc2F)CC1)c1ccc(F)cc1 [CBK286497]: 104
O=C(CCC(=O)N1CCC2(CC1)CC(=O)c1ccccc1O2)NCC1CCCO1 (stereo not drawn) [CBK156525]: 86.2
Cc1ccc(C2=NN(C(=O)CNc3cc(F)cc(F)c3)C(c3ccco3)C2)cc1 (stereo not drawn) [CBK297922]: 94.2
O=C(Nc1nc(-c2cccc([N+](=O)[O-])c2)cs1)c1ccc(S(=O)(=O)N2CCCC2)cc1 [CBK102813]: 86.5

Let me know recorded viability at 28.5 h, 10 µM for O=C(CSc1ccc(Cl)cc1)Nc1cc(Cl)ccc1C(=O)O [CBK264217] , thanks. 115

Query viability at 28.5 h, 10 µM for Cc1ccc(NC(=O)OCCN2CCN(C)CC2)c(C)n1 [CBK200135] 106

----------
# Test system: C. trachomatis L2/434/Bu expressing GFP (CTL2-GFP)
# Construct: L2/434/Bu GFP intracellular growth in HeLa cells
# Method Notes: microbe, parasite or virus in culture
# Set-up: C. trachomatis total inclusion area by high-content imaging, normalised to DMSO
# Applied Conditions: Chlamydia trachomatis, HeLa, 28.5 h; total inclusion area; read-out: % of control remaining
Measurement Name: activity at 10 µM (%)
Return type: number; implicit unit %.

# annotated cases, reported activity at 10 µM shown
CCN(CC)CCNc1nc(-c2cccc(Cl)c2)nc2ccccc12 [CBK267265C]: 26.4
COc1cccc(C(=O)/C=C\Nc2ccc(S(=O)(=O)Nc3onc(C)c3C)cc2)c1 [CBK264206]: 19

We next turn to a different compound, shown below.
Write down activity at 10 µM measured for item COc1ccccc1N/C(=N\OCc1ccc(Cl)cc1Cl)c1nonc1N [CBK018391] 56.1

----------
# Method Notes: in vitro
# Applied Conditions: human, hela cells, % viability
Measurement Name: viability at 28.5 h, 10 µM (%)
Provide the reading as a plain figure in %.

See these solved cases before continuing.
CCN(Cc1ccccc1)C(=O)NCc1cc(C)on1: 106
CCCCCc1nnc(Nc2nc(C)cc(C)n2)[nH]1: 95.4
CNC(=O)NC(=O)C1CCN(CCOc2ccccc2)CC1: 94.7
O=C(Nc1cc(Cl)nc(Cl)c1)N(Cc1ccc(-c2ccccc2)cc1)CC1CCNCC1: 82.6
Cc1ccc(N(CC(=O)NN=C2CCCCCCCCCCC2)S(=O)(=O)c2ccccc2)cc1: 105

Now consider a different molecule.
# return recorded viability at 28.5 h, 10 µM for input Fc1ccc2[nH]c3c(c2c1)CCN1C(c2ccccn2)N2CCC31CC2 (stereo not drawn) 101

----------
# Method Notes: in vitro
# Set-up: Viability of infected HeLa host cells, resazurin conversion, bulk resorufin fluorescence relative to DMSO
# Applied Conditions: human, hela cells; bulk resorufin, mean of 2
Measurement Name: viability at 28.5 h, 10 µM (%)
Give just the number in %; leave the unit off.

# count of solved cases: 5
Cc1nn(C)c(N2CCN(C(=O)OC(C)(C)C)CC2)c1N: 88.5
CC(Nc1cccc2ccccc12)C(=O)N/N=C/c1c(O)ccc2ccccc12 (stereo not shown): 74.2
CCC(c1ccc(F)cc1)N(C)C(=O)Cn1cc(C(=O)NC2CCCCC2)ccc1=O (stereo not shown): 87.5
Cc1cc(C)nc(NS(=O)(=O)c2ccc(NC(=O)N3c4ccccc4Sc4ccccc43)cc2)n1: 89.4
Oc1ccc(Cn2cnc3ccccc32)c2cccnc12: 96

Give reported viability at 28.5 h, 10 µM value for N=c1c2c(-c3ccccc3)c(-c3ccccc3)n(Cc3ccccc3)c2ncn1CCN1CCOCC1 93.4

Give the reported value of viability at 28.5 h, 10 µM for this record: CC(C)Nc1nc2cc(Cl)c(Cl)cc2nc1Sc1cccc(O)c1 100

Quote viability at 28.5 h, 10 µM reported for COc1cccc(CNC(C(=O)O)c2ccc3c(c2)OCO3)c1 (stereo not shown) [CBK015420D] please. 87.4

Please indicate viability at 28.5 h, 10 µM recorded for Cc1noc(NS(=O)(=O)c2ccc(N/C=C\C(=O)c3cccnc3)cc2)c1C 104

Complete the entry with viability at 28.5 h, 10 µM for Cc1cc(C(=O)Nc2ccc(S(=O)(=O)Nc3onc(C)c3C)cc2)no1 100

----------
# Method Notes: in vitro
# Applied Conditions: human, hela cells, % viability
Measurement Name: viability at 28.5 h, 10 µM (%)
Reply with just the number (in %).

CC(C)Oc1ccccc1CN(C)C(C)c1ccc(S(N)(=O)=O)cc1 (stereo not shown): 94.4
Nc1ncc(-c2ccsc2)c2cccnc12: 97.5
COc1ccc(OC)c(C2=NO[C@@](CC(=O)O)(C(=O)NC3CCCCC3)C2)c1: 92.1
NC1CC(c2cc(NCc3cn4ccccc4n3)ncn2)C1 (stereo not shown): 112
Cc1csc2c(N3CCCC3CC(=O)c3cnn(C)c3)ncnc12 (stereo not shown): 81.8
O=C(Cc1n[nH]c(=O)[nH]c1=O)N/N=C/c1ccc(C(=O)O)cc1: 99.5
COc1cc(CN2CCC3(CC2)CN(CC(N)=O)c2ccccc23)cc(OC)c1OC: 93.1
Cc1ccc(C(=O)N2CCN(Cc3cc(=O)n4ccsc4n3)CC2)cn1: 89.4
CC1CCCC(C)N1C(=O)Cn1c(=O)n(C)c2ncccc21 (stereo not shown): 107
COc1ccccc1CNCC1CCN(C(=O)OC(C)(C)C)CC1: 96.4

Indicate its recorded viability at 28.5 h, 10 µM; the molecule in question is COc1ccc([C@@]23CC[C@@H](NC(=O)Nc4nc(Cl)cc(Cl)n4)C[C@@H]2N(C)CC3)cc1OC [CBK067083T] 96.3

Query viability at 28.5 h, 10 µM for O=C(CN1CCSCC1)NNC(=S)Nc1ccccc1 102

Give viability at 28.5 h, 10 µM for the following molecule: Cc1ccc(Cl)cc1-n1cc(-c2ccc(Cl)cc2)nn1 82.4

Given CCC(CC)C(=O)Nc1nc(OC)cnc1-c1ccc(OCOC)cc1 , respond with its viability at 28.5 h, 10 µM. 108

Consider the molecule CCN(CC)CCN1CCN(c2cc(-c3ccc(OC(F)(F)F)cc3)ncn2)CC1 . State its measured viability at 28.5 h, 10 µM. 96.3

Assign viability at 28.5 h, 10 µM to the following record: Cc1cccc(C(=O)N2CCCCC2CN(C)C)c1 (stereo not shown) 81.7

Specify reported viability at 28.5 h, 10 µM for the molecule shown: COc1ccc(C(=O)C2CCN(Cc3cccc4cccnc34)CC2)cc1 85.3

Annotate the molecule Clc1ccc(-c2nn[nH]n2)c(Cl)c1 with its measured viability at 28.5 h, 10 µM. 89.7

Fill in reported viability at 28.5 h, 10 µM for this entry: CCCc1ccc(S(=O)(=O)n2ccn(-c3ccc(Oc4ccccc4)cc3)c2=O)cc1 107

Output measured viability at 28.5 h, 10 µM for this item: CNC(=O)c1sc2ccccc2c1C1CCN(Cc2ccc(OC)c(OC(C)C)c2)C1 (stereo not shown) 95.5

Determine from records and report viability at 28.5 h, 10 µM for CN(C)C(=O)c1cccc(-c2cnc3[nH]c(=O)n(Cc4ccc(Cl)cc4)c3n2)c1 97.5

Name the recorded viability at 28.5 h, 10 µM of the molecule listed here: O=c1[nH]nc2c(SC3CCCCC3)nccn12 69.4

Please report the measured viability at 28.5 h, 10 µM for CC1Cc2cc(CCC(=O)N3CCCc4c(cnn4C)C3)ccc2O1 (stereo not shown) 100

Give viability at 28.5 h, 10 µM for COc1cc(NC(=O)c2ccc3c(c2)C(=O)N(Cc2ccco2)C3=O)c(C(=O)O)cc1OC 105

Input Cc1ccc(S(=O)(=O)CC(=O)N2CCCC3(CCN(Cc4ccccc4)C3)C2)cc1 (stereo not shown) [CBK137098T] , output reported viability at 28.5 h, 10 µM. 90.7

Look up viability at 28.5 h, 10 µM of COCc1cn(C2CC(O)C(CO)O2)c(=O)[nH]c1=O (stereo not shown) and report it. 99.8

Determine from records and report viability at 28.5 h, 10 µM for Cc1cccc(N2CCN(CCCC(c3ccc(F)cc3)c3ccc(F)cc3)CC2)n1 [CBK025113C] 93.9
